Each recorded value in this set is attributed to the PolyMetriX glass transition set.

Attribute: glass transition temperature
Value expressed in °C; do not type the unit.

// worked examples, glass transition temperature included
[
  {
    "MOLECULE": "*c1ccc(-c2ccc(-c3cc(-c4ccc(-c5ccc(Oc6ccccc6)cc5)cc4)c4cc(-c5ccc6nc(*)cc(-c7ccc(-c8ccc(Oc9ccccc9)cc8)cc7)c6c5)ccc4n3)cc2)cc1 (repeat unit)",
    "ATTRIBUTE_MEASURED": "glass transition temperature",
    "DISPLAY_UNIT": "°C",
    "REPORTED_MEASUREMENT": 374.00
  },
  {
    "MOLECULE": "*CC(=O)C(*)c1ccc(C(C)(C)C)cc1 (repeat unit)",
    "ATTRIBUTE_MEASURED": "glass transition temperature",
    "DISPLAY_UNIT": "°C",
    "REPORTED_MEASUREMENT": 158.00
  },
  {
    "MOLECULE": "*CC(C[Si](*)(C)C)c1cccc2ccccc12 (repeat unit)",
    "ATTRIBUTE_MEASURED": "glass transition temperature",
    "DISPLAY_UNIT": "°C",
    "REPORTED_MEASUREMENT": 39.00
  },
  {
    "MOLECULE": "*CC(*)c1cc(Br)ccc1OCCCCC (repeat unit)",
    "ATTRIBUTE_MEASURED": "glass transition temperature",
    "DISPLAY_UNIT": "°C",
    "REPORTED_MEASUREMENT": 49.00
  },
  {
    "MOLECULE": "*CC(C)(C)CS(*)(=O)=O (repeat unit)",
    "ATTRIBUTE_MEASURED": "glass transition temperature",
    "DISPLAY_UNIT": "°C",
    "REPORTED_MEASUREMENT": 108.50
  }
]

Q) Read off the recorded glass transition temperature for *CCc1cccc(*)c1 (repeat unit)
A) 9.00

Q) For *c1ccc(-c2ccc(-c3ccc(-c4cnc5ccc(-c6ccc7ncc(*)nc7c6)cc5n4)cc3)cc2)cc1 (repeat unit) , write its glass transition temperature.
A) 305.00

Q) Tell me measured glass transition temperature for *Oc1ccc2c(c1)C1(CC2(C)C)CC(C)(C)c2ccc(OC(*)=O)cc21 (repeat unit) please.
A) 228.00

Q) Find the measured glass transition temperature of */C(C)=C(/*)CCC (repeat unit) and report it.
A) 200.00
